All values here come from patent US5218096A.

experiment: Digestion test in vitro, hydrolysis rate; type: in vitro ADME; settings: amylopsin, read-out: hydrolysis rate (the ratio of reducing sugars against total sugars)
Property measured: metabolised (%)
Quick note: give the figure in %, leave out the unit.

**Query** Entry under review: OC[C@H]1O[C@@H](O[C@H]2[C@H](O)[C@@H](O)[C@H](O[C@H]3O[C@H](CO)[C@@H](O)[C@H](O)[C@H]3O)O[C@@H]2CO)[C@H](O)[C@@H](O)[C@H]1O . Reported metabolised?
**Result** 0

----------
assay: Solubility; type: physicochemical; details: water, 25° C.
Property measured: solubility (mg/mL)
Quick note: give the figure in mg/mL, leave out the unit.

**Query** Entry under review: OC[C@H]1O[C@@H](O[C@H]2[C@H](O)[C@@H](O)[C@H](O[C@H]3O[C@H](CO)[C@@H](O)[C@H](O)[C@H]3O)O[C@@H]2CO)[C@H](O)[C@@H](O)[C@H]1O [lactoneotrehalose] . Reported solubility?
**Result** 217
